Test system: SK-OV-3 ovarian
Test: NCI-60 one-dose screen, 48 h (100 = growth as untreated, 0 = no growth, -100 = all killed)
Conditions: 10 µM unless noted
The panel holds about 83,000 compounds, 20% with a hit somewhere; the sample as a whole holds those more often.
quantity-name: growth (%)
Write the answer as a number in %, unit excluded.

// worked examples, growth included
COc1cc2c(cc1OC)C(C)N(S(N)(=O)=O)CC2 (stereo not drawn) ... 103
NC(=O)c1ccc(-c2c3ccccc3cc3c2ccc2ccccc23)cc1 ... 69.5
O=C(O)c1ccc(-n2cc(/C=N/Nc3ccccc3)c(-c3ccc(F)cc3F)n2)cc1 ... 89.1

Q: Consider the compound COc1cc2c(c(OC)c1OC)CCC(c1cccc(C(=O)Nc3cccc(Cl)c3)c1)O2 (stereo not drawn) and give its measured growth.
Result: 64.9

Q: Consider the compound O=S(=O)(NCCCNc1nccc(-c2c(-c3ccc(F)c(O)c3)nc3occn23)n1)c1ccc(Cl)cc1 and give its measured growth.
Result: 64.4

Q: Consider the compound C[PH+](c1nc2ccccc2nc1[PH+](C)C(C)(C)C)C(C)(C)C.C[PH+](c1nc2ccccc2nc1[PH+](C)C(C)(C)C)C(C)(C)C.[Au+].[Cl-] (stereo not drawn) and give its measured growth.
Result: -100

Q: Consider the compound N#C/C(=C\c1c(-c2ccccc2)[nH]c2ccccc12)C(N)=O and give its measured growth.
Result: 93

Q: Consider the compound COc1ccc(/C=C/C(=O)c2cccc(OCCCCOc3cccc(C(=O)/C=C/c4ccc(OC)c(OC)c4)c3)c2)cc1OC and give its measured growth.
Result: 89.6

Q: Consider the compound COc1ccc(-c2cc(-c3ccc(Cl)cc3)c(C#N)c(=O)n2Cc2ccc(C(=O)Nc3ccccc3N)cc2)cc1 and give its measured growth.
Result: 92.6

Q: Consider the compound CCOC(=O)C1=C(N)Oc2c(sc3c(F)cccc23)C1c1ccc(O)cc1 (stereo not drawn) and give its measured growth.
Result: 78.9

Q: Consider the compound O=C(/C=C(/C=C/c1ccc2[nH]ccc2c1)OB(F)F)/C=C/c1ccc2[nH]ccc2c1 and give its measured growth.
Result: 13.6

Q: Consider the compound COc1cc(-c2nccc3[nH]c(-c4ccc5cc[nH]c5c4)nc23)cc(OC)c1OC and give its measured growth.
Result: 1.3

Q: Consider the compound COC(=O)CC[C@H](C)[C@H]1CC[C@H]2[C@@H]3CC[C@@H]4CC5(CC[C@]4(C)[C@H]3CC(=O)[C@]12C)Nc1ccccc1NC5=NC(C)(C)C (stereo partly drawn) and give its measured growth.
Result: 97

====

Tested on: NCI-H460 lung
Experiment: NCI-60 one-dose screen, 48 h (100 = growth as untreated, 0 = no growth, -100 = all killed)
Settings: 10 µM unless noted
The panel holds about 83,000 compounds, 20% with a hit somewhere; the sample as a whole holds those more often.
Label scheme for growth: lower than 30% is Condition not met, 30% and above is Condition met.

Here are 8 molecules together with their reported answers.
COC(=O)/C=C1/SC(=Nc2ccc(C(F)(F)F)cc2)N(CCc2c[nH]c3ccc(O)cc23)C1=O ... Condition not met
Cn1cc(-c2csc(-c3c[nH]c4ccc(Br)cc34)n2)c2ccnc(Cl)c21 ... Condition not met
CCCCCCCCCc1ccc(OCCOCCOCCOCCOCCOCCOCCOCCOCCO)cc1 ... Condition not met
O=C(CSc1oc(-c2ccccc2)nc1S(=O)(=O)c1ccccc1)Nc1ccc(F)cc1 ... Condition met
N#Cc1nc(-c2ccc(F)cc2)oc1S(=O)(=O)N1CCCCC1 ... Condition met
CCCCC1=C(P(=O)(O)O)N[C@H](C(=O)O)CS1 ... Condition met
CC1(C)CC(=O)C2=C(C1)N(c1ccc(OC(F)(F)F)cc1)C(N)=C(C#N)C2c1ccc(Br)cc1F (stereo not given) ... Condition not met
O=C(Cn1cc(CSc2nc3ccccc3o2)nn1)Nc1ccc(F)cc1F ... Condition met

Please find the next molecule below.
Q: For this molecule, is measured growth 30% or higher? COc1ccc(/C=C(\C#N)n2nnc3cc(F)c(F)cc32)cc1
Result: Condition met
